# targetUnderTest: T1, 4H2736-AA
# T1 chain: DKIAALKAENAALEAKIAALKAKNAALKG
# protocolText: two-hybrid library CCmax;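 also: natural log of median RNA to DNA barcode read ratio; higher means stronger binding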
# setupConditions: mean of both orientations
testReadout: interaction score
Reply: number alone, nothing else.

binder="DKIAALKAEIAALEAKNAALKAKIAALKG [4H2622-AA]" testreadout="interaction score" numericvalue=-0.125
binder="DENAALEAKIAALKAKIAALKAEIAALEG [4H1385-AA]" testreadout="interaction score" numericvalue=-0.116
binder="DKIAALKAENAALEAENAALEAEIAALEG [4H2705-AA]" testreadout="interaction score" numericvalue=-1.45

Ask: Given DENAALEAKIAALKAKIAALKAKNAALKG [4H1392-AA] , state its recorded interaction score.
Reply: -1.42

Ask: Data request, read-out interaction score, for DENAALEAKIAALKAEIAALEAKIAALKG [4H1350-AA]
Reply: -1.22

Ask: Data request, read-out interaction score, for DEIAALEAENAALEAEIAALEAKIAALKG [4H134-AA]
Reply: 0.536

Ask: Give the measured interaction score of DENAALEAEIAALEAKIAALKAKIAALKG [4H1070-AA] .
Reply: -0.965

Ask: For the binder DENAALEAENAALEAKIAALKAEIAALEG [4H1193-AA] , what interaction score is on record?
Reply: -0.353
